From: the supplement of paper PMC12667976

B1: library; numbered along this chain (parent)
chain: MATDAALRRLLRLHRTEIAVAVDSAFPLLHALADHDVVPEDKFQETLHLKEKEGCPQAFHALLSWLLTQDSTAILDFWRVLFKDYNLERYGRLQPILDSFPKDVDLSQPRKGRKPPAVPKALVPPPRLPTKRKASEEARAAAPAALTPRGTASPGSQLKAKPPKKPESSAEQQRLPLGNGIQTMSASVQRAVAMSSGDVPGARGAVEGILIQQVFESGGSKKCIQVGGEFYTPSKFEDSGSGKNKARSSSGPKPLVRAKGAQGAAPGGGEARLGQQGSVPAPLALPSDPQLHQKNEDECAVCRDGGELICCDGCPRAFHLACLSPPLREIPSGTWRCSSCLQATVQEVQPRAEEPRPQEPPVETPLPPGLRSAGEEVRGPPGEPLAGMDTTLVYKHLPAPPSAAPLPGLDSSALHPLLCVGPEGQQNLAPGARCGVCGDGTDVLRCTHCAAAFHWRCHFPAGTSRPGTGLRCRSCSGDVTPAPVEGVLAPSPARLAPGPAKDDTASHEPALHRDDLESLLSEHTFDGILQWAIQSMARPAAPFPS

variants of: B1; experiment: AIRE transcriptional activation functional score (insulin promoter-GFP; nonsense median 0, synonymous median 1) (normalised score); higher = higher AIRE activity (more reporter activation); conditions: with insulin promoter-GFP reporter in HEK293
// thresholds for AIRE transcriptional activation functional score classes: c1: < 0.5; c2: ≥ 0.5 and < 1; c3: ≥ 1

Worked cases, answers included:
INPUT: Hey, which category is S287R in, do you know?
OUTPUT: c3

INPUT: Hey, which category is P27V in, do you know?
OUTPUT: c1

INPUT: Hey, which category is K114R in, do you know?
OUTPUT: c2

INPUT: Hey, which category is L520S in, do you know?
OUTPUT: c1

INPUT: Hey, which category is N179I in, do you know?
OUTPUT: c3

New cases:
INPUT: Hey, which category is D526N in, do you know?
OUTPUT: c1

INPUT: Hey, which category is A121E in, do you know?
OUTPUT: c3

INPUT: Hey, which category is A61T in, do you know?
OUTPUT: c2

INPUT: Hey, which category is N427P in, do you know?
OUTPUT: c3

INPUT: Hey, which category is P405N in, do you know?
OUTPUT: c3

INPUT: Hey, which category is E485M in, do you know?
OUTPUT: c1

INPUT: Hey, which category is E53H in, do you know?
OUTPUT: c1

INPUT: Hey, which category is F230D in, do you know?
OUTPUT: c2

INPUT: Hey, which category is D103E in, do you know?
OUTPUT: c3

INPUT: Hey, which category is S476Q in, do you know?
OUTPUT: c1

INPUT: Hey, which category is N295I in, do you know?
OUTPUT: c2

INPUT: Hey, which category is S234V in, do you know?
OUTPUT: c3

INPUT: Hey, which category is G204Q in, do you know?
OUTPUT: c2

INPUT: Hey, which category is S332M in, do you know?
OUTPUT: c1

INPUT: Hey, which category is A450L in, do you know?
OUTPUT: c3

INPUT: Hey, which category is P56E in, do you know?
OUTPUT: c1

INPUT: Hey, which category is S217A in, do you know?
OUTPUT: c1

INPUT: Hey, which category is Y231A in, do you know?
OUTPUT: c2

INPUT: Hey, which category is V199I in, do you know?
OUTPUT: c3

INPUT: Hey, which category is P368R in, do you know?
OUTPUT: c3
